# target or system: Proteasome Macropain subunit MB1 (Homo sapiens, UniProt P28074)
# Sequence (P28074 whole entry): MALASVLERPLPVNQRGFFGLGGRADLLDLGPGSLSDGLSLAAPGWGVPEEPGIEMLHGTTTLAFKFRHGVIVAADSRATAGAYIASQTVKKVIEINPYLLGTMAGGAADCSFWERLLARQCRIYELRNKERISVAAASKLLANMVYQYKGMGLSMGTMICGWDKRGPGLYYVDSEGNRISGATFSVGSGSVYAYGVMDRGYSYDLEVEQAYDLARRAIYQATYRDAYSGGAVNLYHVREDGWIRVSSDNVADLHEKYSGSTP
# protocol text: Inhibition of chymotrypsin-like activity of human 20S proteasome using Suc-Leu-Leu-Val-Tyr-AMC as substrate after 1 hr by fluorescence analysis
measured property: IC50 (nM)

1. CC(C)C[C@H](NC(=O)[C@H](Cc1ccccc1)OCc1cnccn1)B(O)O    53
2. CC(C)C[C@H](NC(=O)[C@H](Cc1ccccc1)Oc1cccc2ccccc12)B(O)O    275
3. CC(C)C[C@H](NC(=O)[C@H](Cc1ccccc1)Oc1cnccn1)B(O)O    155

(A) CC(C)C[C@H](NC(=O)[C@H](Cc1ccccc1)NCc1cccc2ccccc12)B(O)O
(B) CC(C)C[C@H](NC(=O)[C@H](Cc1ccccc1)Nc1cnccn1)B(O)O
input: Lower IC50: A or B ? Pick one and reply with its label.
output: A

(a) CC(C)C[C@H](NC(=O)[C@H](Cc1ccccc1)NCc1cnccn1)B(O)O
(b) CC(C)C[C@H](NC(=O)[C@H](Cc1ccccc1)NCc1ccccc1)B(O)O
input: Between a and b , which one shows the smaller IC50 number? Please respond with the label that marks your chosen entry.
output: b

(P) CC(C)C[C@H](NC(=O)[C@H](Cc1ccccc1)Nc1ccccc1)B(O)O
(Q) CC(C)C[C@H](NC(=O)[C@H](Cc1ccccc1)Oc1ccccc1)B(O)O
input: Recorded IC50 values differ for P and Q ; which one is higher? Your answer should be the label of the entry you select.
output: P
(P: 335 nM, Q: 126 nM)

(I) CC(C)C[C@H](NC(=O)[C@H](Cc1ccccc1)OCc1ccccc1)B(O)O
(II) CC(C)C[C@H](NC(=O)[C@H](Cc1ccccc1)OCc1cccc2ccccc12)B(O)O
(III) CC(C)C[C@H](NC(=O)[C@H](Cc1ccccc1)Nc1cccc2ccccc12)B(O)O
input: Put the molecules in ascending order of IC50. The labels, placed in the requested order, form the answer.
output: I, II, III

Recorded values, source ChEMBL document CHEMBL4118186.
